Values were extracted from patent US20170066831A1.

Below, each of the binders is paired with its reported Kd value.
Molecular target: T1, human ST2L extracellular domain with C-terminal His6 tag (human, UniProt Q01638 19-328)
T1 construct: also called huST2L-ECD; ST2L-ECD
T1 sequence: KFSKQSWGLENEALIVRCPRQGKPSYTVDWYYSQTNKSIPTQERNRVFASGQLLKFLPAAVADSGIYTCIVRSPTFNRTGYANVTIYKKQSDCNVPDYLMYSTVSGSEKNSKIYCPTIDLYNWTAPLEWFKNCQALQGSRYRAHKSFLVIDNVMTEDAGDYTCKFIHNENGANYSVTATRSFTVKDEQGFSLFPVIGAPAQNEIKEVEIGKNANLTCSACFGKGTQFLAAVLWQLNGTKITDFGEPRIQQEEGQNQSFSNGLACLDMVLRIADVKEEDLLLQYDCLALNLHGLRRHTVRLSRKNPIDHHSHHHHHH
Assay: SPR, mAb captured, ST2L-ECD in solution
Reply numerically in nM, unit not repeated.

[
  {
    "binder": "STLM230 (antibody, V domains shown, VH STLH201 + VL STLL274) VH: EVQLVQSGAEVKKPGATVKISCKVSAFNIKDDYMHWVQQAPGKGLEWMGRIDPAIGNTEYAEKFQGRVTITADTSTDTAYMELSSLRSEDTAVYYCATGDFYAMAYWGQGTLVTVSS VL: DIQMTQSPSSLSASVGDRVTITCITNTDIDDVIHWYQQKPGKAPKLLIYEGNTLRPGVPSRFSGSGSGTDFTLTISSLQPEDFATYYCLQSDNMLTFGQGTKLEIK",
    "experimental-readout": "Kd",
    "observed-result": 0.038
  }
]

Let us examine a further case.
What does the data say about its Kd? Entry: STLM222 (antibody, V domains shown, frameworks VH3-23 / Vk-L6) VH: EVQLLESGGGLVQPGGSLRLSCAASGFTFSIYSMFWVRQAPGKGLEWVSDIGGEGGGTSYADSVKGRFTISRDNSKNTLYLQMNSLRAEDTAVYYCARDPWSTEGSFFVLDYWGQGTLVTVSS VL: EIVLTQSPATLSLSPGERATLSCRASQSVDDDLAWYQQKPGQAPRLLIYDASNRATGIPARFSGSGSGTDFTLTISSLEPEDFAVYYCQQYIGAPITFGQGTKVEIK 0.037
